Sequence of the target: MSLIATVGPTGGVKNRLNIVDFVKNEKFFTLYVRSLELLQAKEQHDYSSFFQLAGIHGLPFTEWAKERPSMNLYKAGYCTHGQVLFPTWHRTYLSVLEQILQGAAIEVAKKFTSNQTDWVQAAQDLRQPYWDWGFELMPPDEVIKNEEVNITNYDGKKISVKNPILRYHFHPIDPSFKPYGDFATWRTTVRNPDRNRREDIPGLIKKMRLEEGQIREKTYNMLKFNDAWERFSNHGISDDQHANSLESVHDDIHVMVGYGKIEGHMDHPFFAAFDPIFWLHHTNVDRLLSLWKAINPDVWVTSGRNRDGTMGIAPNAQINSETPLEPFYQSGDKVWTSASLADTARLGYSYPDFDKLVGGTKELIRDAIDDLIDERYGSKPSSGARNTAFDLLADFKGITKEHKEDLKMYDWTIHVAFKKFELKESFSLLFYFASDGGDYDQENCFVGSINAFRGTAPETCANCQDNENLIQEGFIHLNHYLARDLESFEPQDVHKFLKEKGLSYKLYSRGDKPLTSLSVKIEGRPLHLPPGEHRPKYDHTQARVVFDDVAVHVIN
Below: molecules with IC50 recorded for the protein given by its sequence in separate published works.
Labelling: IC50 reported below 6 µM becomes yes (1); at or above becomes no (0).

Lab note: IC50 threshold 6 µM. Does this molecule come in strictly under it? COc1ccccc1-c1nnc(SCC(=O)Nc2ccc(I)cc2)o1
yes (1)

Lab note: IC50 threshold 6 µM. Does this molecule come in strictly under it? O=Cc1ccc(O[C@@H]2O[C@H](COC(c3ccccc3)(c3ccccc3)c3ccccc3)[C@@H](O)[C@@H](O)[C@H]2O)cc1
no (0)

Lab note: IC50 threshold 6 µM. Does this molecule come in strictly under it? COc1cc2c(c(OC)c1OC)[C@@H]1O[C@H](COC(=O)c3ccccc3)[C@@H](O)[C@H](O)[C@H]1OC2=O
no (0)

Lab note: IC50 threshold 6 µM. Does this molecule come in strictly under it? Sc1ncc[nH]1
no (0)

Lab note: IC50 threshold 6 µM. Does this molecule come in strictly under it? Oc1ccc2cc(-c3cc(O)c(O)c(O)c3)ccc2c1
yes (1)

Lab note: IC50 threshold 6 µM. Does this molecule come in strictly under it? Oc1ccc(C2CC(c3ccc(O)cc3O)=NN2)cc1 (stereo not given)
yes (1)

Lab note: IC50 threshold 6 µM. Does this molecule come in strictly under it? CO[C@@]12OC(=O)C(C)=C1C1=C3[C@](C)([C@@H]4C[C@@H]4[C@@]3(O)C[C@@H]3[C@]14OC(=O)C1=C4C[C@H]4[C@](O)(COC(=O)/C(C)=C/COC(=O)CCC(=O)OC1)[C@H]1C[C@H]1[C@]34C)[C@H]2O
no (0)

Lab note: IC50 threshold 6 µM. Does this molecule come in strictly under it? COc1cc(-c2ccc(C(=O)O)c(O)c2)cc(OC)c1OC
no (0)

Lab note: IC50 threshold 6 µM. Does this molecule come in strictly under it? OC[C@H]1O[C@@H](Oc2ccc(/C=N\O)cc2)[C@H](O)[C@@H](O)[C@@H]1O
no (0)

Lab note: IC50 threshold 6 µM. Does this molecule come in strictly under it? COC(=O)C(CC(C)C)NC(=O)COc1ccc(C=O)cc1 (stereo not given)
no (0)

Lab note: IC50 threshold 6 µM. Does this molecule come in strictly under it? O=C(/C=C/c1cccc(O)c1)NCCCCNC(=O)/C=C/c1cccc(O)c1
no (0)

Lab note: IC50 threshold 6 µM. Does this molecule come in strictly under it? O=C(O)/C(=C/c1ccc(O)cc1)NC(=O)c1ccccc1
no (0)

Lab note: IC50 threshold 6 µM. Does this molecule come in strictly under it? CO/N=C\c1ccc(O[C@@H]2O[C@H](COC(=O)c3ccccc3)[C@@H](OC(=O)c3ccccc3)[C@@H](OC(=O)c3ccccc3)[C@H]2OC(=O)c2ccccc2)cc1
no (0)

Lab note: IC50 threshold 6 µM. Does this molecule come in strictly under it? CC1=C(CO)C(C)(C)CC(=O)C1O (stereo not given)
no (0)

###

pIC50: −log10 of the molar value.
Below: molecules with pIC50 recorded for UniProt O42713 in separate published works.
Please note: y applies when pIC50 is 5 or greater, and n applies otherwise.

Determine whether this molecule has pIC50 no lower than 5: O=C(NO)Nc1ccccc1
y

Determine whether this molecule has pIC50 no lower than 5: CCCCCCC(=O)Nc1cccc(/C(C)=N/NC(N)=S)c1
y

Determine whether this molecule has pIC50 no lower than 5: COc1ccc(C(=O)N/N=C/c2cccc(O)c2O)cc1OC
n

Determine whether this molecule has pIC50 no lower than 5: Oc1ccc(/N=N/c2cc(O)cc(O)c2)cc1
n

Determine whether this molecule has pIC50 no lower than 5: NC(=S)N/N=C\C=C\c1ccccc1
y

Determine whether this molecule has pIC50 no lower than 5: Cn1ccc2cc(/C=N/NC(N)=S)ccc21
n

Determine whether this molecule has pIC50 no lower than 5: COCCOCCOc1ccc(C=O)cc1
n

Determine whether this molecule has pIC50 no lower than 5: CCOc1cc(C)ccc1C(C)C
n

Determine whether this molecule has pIC50 no lower than 5: CCCOc1ccc(CC/C(C)=N/NC(N)=S)cc1
y

Determine whether this molecule has pIC50 no lower than 5: CCOC(=O)CCc1ccc(O)cc1O
y

Determine whether this molecule has pIC50 no lower than 5: COc1cc(-c2ccc(C=O)c(OCc3ccccc3)c2)cc(OC)c1OC
n

Determine whether this molecule has pIC50 no lower than 5: C(=N\Nc1nc(C23CC4CC(CC(C4)C2)C3)cs1)/c1cc2ccccc2s1
n

Determine whether this molecule has pIC50 no lower than 5: CCO[C@H]1Oc2c(c(C(C)=O)c(O)c3ccccc23)[C@@H]1C (relative stereo)
n

Determine whether this molecule has pIC50 no lower than 5: O=C(/C=C/c1ccc(O)cc1)NCCNC(=O)/C=C/c1ccc(O)cc1
y

Determine whether this molecule has pIC50 no lower than 5: O=c1cc(-c2ccc(O)cc2O)oc2cc(O)cc(O)c12
n

Determine whether this molecule has pIC50 no lower than 5: O=C(OCc1ccccc1O)c1ccc(O)cc1O
n

Determine whether this molecule has pIC50 no lower than 5: CCC(=O)N1CCC(Cc2ccc(F)cc2)CC1
n

Determine whether this molecule has pIC50 no lower than 5: O=C(c1ccc(O)cc1)N1CCN(Cc2ccc(F)cc2)CC1
n

Determine whether this molecule has pIC50 no lower than 5: O=C(NO)Nc1ccc(O)cc1
n

Determine whether this molecule has pIC50 no lower than 5: CC(=O)OC[C@H]1O[C@@H](Oc2ccc(/C=N\NC(N)=S)cc2)[C@H](OC(C)=O)[C@H](OC(C)=O)[C@@H]1OC(C)=O
y

Determine whether this molecule has pIC50 no lower than 5: CCOC(=O)[C@H](Cc1ccccc1)NC(=O)/C=C/c1ccc(O)c(OC)c1
y

Determine whether this molecule has pIC50 no lower than 5: Oc1cc(O)cc(Oc2c(O)cc(O)c3c2Oc2c(O)cc(Oc4c(O)cc(Oc5c(O)cc(O)c6c5Oc5c(O)cc(O)cc5O6)cc4O)cc2O3)c1
n

Determine whether this molecule has pIC50 no lower than 5: Oc1ccc(N/C(S)=N/c2ccccc2)cc1
n

Determine whether this molecule has pIC50 no lower than 5: COc1ccc(C(=O)NCc2ccc(O)cc2O)c(OC)c1
y

Determine whether this molecule has pIC50 no lower than 5: COc1cccc(-c2nnc(SCC(=O)Nc3ccc(Br)cc3)o2)c1
y

Determine whether this molecule has pIC50 no lower than 5: O=C(O)CCc1ccccc1
n

Determine whether this molecule has pIC50 no lower than 5: COC(=O)[C@@]12COCC[C@H]3[C@@H]1CC[N@+](C)([O-])[C@H]3c1c2[nH]c2ccccc12
n

Determine whether this molecule has pIC50 no lower than 5: COc1ccc(NC(=O)NO)c(OC)c1
n

Determine whether this molecule has pIC50 no lower than 5: O=C(NCc1ccc(O)cc1)c1ccc(O)c(O)c1
n

Determine whether this molecule has pIC50 no lower than 5: ONC(=S)Nc1ccccc1
n

Determine whether this molecule has pIC50 no lower than 5: CN(O)C(=O)Nc1ccccc1
n

Determine whether this molecule has pIC50 no lower than 5: CONC(=O)Nc1ccccc1
n

###

Biological target: Tyrosinase (Agaricus bisporus)
Sequence (O42713 whole entry): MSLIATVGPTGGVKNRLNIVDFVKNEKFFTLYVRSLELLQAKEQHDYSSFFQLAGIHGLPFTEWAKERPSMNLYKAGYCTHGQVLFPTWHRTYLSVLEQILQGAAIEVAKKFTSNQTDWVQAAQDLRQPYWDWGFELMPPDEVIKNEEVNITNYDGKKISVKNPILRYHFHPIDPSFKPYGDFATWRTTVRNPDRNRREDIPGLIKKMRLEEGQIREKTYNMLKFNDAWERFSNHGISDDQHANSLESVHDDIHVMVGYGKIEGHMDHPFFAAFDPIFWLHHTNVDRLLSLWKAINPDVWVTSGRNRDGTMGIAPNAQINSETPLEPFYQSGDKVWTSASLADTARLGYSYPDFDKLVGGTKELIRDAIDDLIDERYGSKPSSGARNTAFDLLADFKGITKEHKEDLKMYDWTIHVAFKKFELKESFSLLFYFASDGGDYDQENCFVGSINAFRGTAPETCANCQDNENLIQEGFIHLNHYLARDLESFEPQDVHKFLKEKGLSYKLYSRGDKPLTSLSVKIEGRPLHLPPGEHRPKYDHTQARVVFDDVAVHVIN
Below: molecules with IC50 recorded for Tyrosinase (Agaricus bisporus) in separate published works.

Form field - read-out: IC50; system: Tyrosinase (Agaricus bisporus); submitted item: CCOc1cc(C)c(C(=O)CCC(=O)OC)cc1C(C)C
> 500 µM

Form field - read-out: IC50; system: Tyrosinase (Agaricus bisporus); submitted item: O=C(O)CSc1nnc(NC(=S)Nc2ccc(F)cc2F)s1
20.1 µM

Form field - read-out: IC50; system: Tyrosinase (Agaricus bisporus); submitted item: CCCCNC(=O)c1ccc(-c2cc(OC)c(O)c(OC)c2)cc1
70 µM

Form field - read-out: IC50; system: Tyrosinase (Agaricus bisporus); submitted item: CCCCOC(=O)CCC(=O)c1cc(C)c(OCC)cc1C(C)C
176 µM
